# targetUnderTest: UniProt O43614
# assaySummary: Scintillation Proximity Assay (SPA) binding assay, [3H]EMPA displacement, HEK-hOX2 membranes
# appliedConditions: Table 1, [3H]EMPA 2 nM

- compound: "Cc1ccc(-c2nccs2)c(C(=O)N2C3CC(C3)[C@H](C)C2COc2ccc(F)cc2)n1 (mixture of isomers)"
  OX2 pKi (SPA binding): 6.12
- compound: "Cc1ccc(-n2nccn2)c(C(=O)N2C3CC(C3)[C@@H](C)C2COc2ccc(F)cc2)n1 (stereo partly drawn)"
  OX2 pKi (SPA binding): 6.6
- compound: "Cc1nc(C(=O)N2C(COc3cnc4ccccc4n3)CC3CC2C3)c(-c2ccccc2)s1 (stereo not drawn)"
  OX2 pKi (SPA binding): 6.76
- compound: "Cc1nc(C(=O)N2C(COc3ccc(Br)cc3)CC3CC2C3)c(-c2ccccc2)s1 (stereo not drawn)"
  OX2 pKi (SPA binding): 6.51
- compound: "Cc1ccc(-n2nccn2)c(C(=O)N2C3CC(C3)[C@H](C)C2COc2ccc(Cl)cn2)n1 (stereo partly drawn)"
  OX2 pKi (SPA binding): 5.71
- compound: "Cc1nc(C(=O)N2C(COc3ccc(F)cc3)CC3CC2C3)c(-c2ccccc2)s1 (racemic)"
  OX2 pKi (SPA binding): 6.97
- compound: "Cc1ccc(-n2nccn2)c(C(=O)N2C3CC(C3)[C@H](C)C2COc2ccc(F)cc2)n1 (stereo partly drawn)"
  OX2 pKi (SPA binding): 5.6
- compound: "Cc1ccc(-n2nccn2)c(C(=O)N2C(COc3ccc(F)cc3)CC3CC2C3)n1 (stereo not drawn)"
  OX2 pKi (SPA binding): 6.19
- compound: "Cc1nc(C(=O)N2C(CNc3nc4ccc(F)cc4s3)CC3CC2C3)c(-c2ccccc2)s1 (stereo not drawn)"
  OX2 pKi (SPA binding): 8.03
- compound: "Cc1nc(C(=O)N2C(COc3ccc(F)c(F)c3)CC3CC2C3)c(-c2ccccc2)s1 (stereo not drawn)"
  OX2 pKi (SPA binding): 6.91
- compound: "COc1nc(C(=O)N2C(COc3ccc(F)cc3)CC3CC2C3)c(-c2ccccc2)s1 (stereo not drawn)"
  OX2 pKi (SPA binding): 6.79
- compound: "Cc1nc(C(=O)N2C3CC(C3)[C@@H](C)C2COc2ccc(F)cc2)c(-c2ncccn2)s1 (stereo partly drawn)"
  OX2 pKi (SPA binding): 6.35

----------
Ki values by entry
# targetUnderTest: human Orexin type 1 receptors (Homo sapiens (Human))
# Sequence (O43613 whole entry): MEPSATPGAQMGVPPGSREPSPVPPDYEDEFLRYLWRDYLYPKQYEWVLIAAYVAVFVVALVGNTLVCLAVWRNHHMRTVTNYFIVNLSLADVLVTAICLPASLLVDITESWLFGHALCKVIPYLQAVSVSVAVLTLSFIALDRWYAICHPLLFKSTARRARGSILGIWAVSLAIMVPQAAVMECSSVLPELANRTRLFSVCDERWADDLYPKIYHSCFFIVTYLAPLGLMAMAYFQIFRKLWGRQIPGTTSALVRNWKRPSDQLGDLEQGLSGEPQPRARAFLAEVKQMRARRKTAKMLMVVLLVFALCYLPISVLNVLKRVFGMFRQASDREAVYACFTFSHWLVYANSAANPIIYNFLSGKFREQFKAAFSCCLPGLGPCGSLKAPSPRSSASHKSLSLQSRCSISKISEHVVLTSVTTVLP
# assaySummary: Intracellular calcium measurement (FLIPR), antagonism of Orexin-A at EC80 in CHO-hOX1 cells
measurementKind: Ki (nM)

- molecule: "Cc1ccc(-c2ncccn2)c(C(=O)N2C(COc3ccc(C(F)(F)F)cn3)CC3CC2C3)c1 (racemic) [Example 35]"
  measurementKind: "Ki"
  number: 74.1
- molecule: "Cc1nc(C(=O)N2C3CC(C3)C(C)C2COc2cc3ccccc3cn2)c(-c2ccccc2)s1 (mixture of isomers)"
  measurementKind: "Ki"
  number: 6.31
- molecule: "Cc1ccc(-c2nccs2)c(C(=O)N2C(COc3ccc(F)cn3)CC3CC2C3)c1 (single isomer, unassigned) [Example 26]"
  measurementKind: "Ki"
  number: 18.2
- molecule: "Cc1ccc(-c2nccs2)c(C(=O)N2C(COc3ccc(F)cn3)CC3CC2C3)n1 (stereo not shown)"
  measurementKind: "Ki"
  number: 97.7

----------
OX2 pKi (SPA binding) values by entry
# targetUnderTest: human Orexin type 2 receptors (Homo sapiens (Human), UniProt O43614)
# Sequence (O43614 whole entry): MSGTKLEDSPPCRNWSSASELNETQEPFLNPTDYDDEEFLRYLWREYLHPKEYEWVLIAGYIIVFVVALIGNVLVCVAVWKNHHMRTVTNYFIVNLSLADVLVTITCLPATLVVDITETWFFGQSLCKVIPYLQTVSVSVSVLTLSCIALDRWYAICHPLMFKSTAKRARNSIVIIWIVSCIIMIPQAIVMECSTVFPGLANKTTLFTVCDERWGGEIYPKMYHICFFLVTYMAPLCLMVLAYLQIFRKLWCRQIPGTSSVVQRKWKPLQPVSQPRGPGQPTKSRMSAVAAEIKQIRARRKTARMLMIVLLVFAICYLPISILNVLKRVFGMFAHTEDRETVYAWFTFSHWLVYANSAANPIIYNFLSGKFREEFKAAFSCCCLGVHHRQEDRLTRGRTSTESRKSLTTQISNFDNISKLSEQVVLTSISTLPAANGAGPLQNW
# assaySummary: Scintillation Proximity Assay (SPA) binding assay, [3H]EMPA displacement, HEK-hOX2 membranes
# appliedConditions: Table 2, [3H]EMPA 2 nM

- molecule: "C[C@@H]1C2CC(C2)N(C(=O)c2cc(F)ccc2-n2nccn2)C1CNc1nc2ccc(F)cc2s1 (mixture of isomers) [Example 168]"
  OX2 pKi (SPA binding): 5.88
- molecule: "C[C@@H]1C2CC(C2)N(C(=O)c2cc(Cl)ccc2-n2nccn2)C1CNc1nc2cccnc2o1 (single isomer, unassigned) [Example 244]"
  OX2 pKi (SPA binding): 5.18
- molecule: "Cc1ccc(-n2nccn2)c(C(=O)N2C3CC(C3)[C@@H](C)C2CNc2ccc3ccccc3n2)n1 (mixture of isomers)"
  OX2 pKi (SPA binding): 5.2
- molecule: "Cc1ccc(-c2ncc(F)cn2)c(C(=O)N2C3CC(C3)[C@@H](C)C2COc2ccc(F)cc2)n1 (mixture of isomers)"
  OX2 pKi (SPA binding): 7.03
- molecule: "C[C@@H]1C2CC(C2)N(C(=O)c2c(F)cccc2-n2nccn2)C1CNc1cnc(C(F)(F)F)cn1 (some centres unmarked)"
  OX2 pKi (SPA binding): 5
- molecule: "Cc1nc(C(=O)N2C3CC(C3)[C@@H](C)C2CNc2nc3ccc(F)cc3s2)c(-c2ncccn2)s1 (single isomer, unassigned) [Example 164]"
  OX2 pKi (SPA binding): 5.68
- molecule: "Cc1ccc(-n2nccn2)c(C(=O)N2C3CC(C3)[C@@H](C)C2CNc2cnc(C(F)(F)F)cn2)n1 (single isomer, unassigned) [Example 166]"
  OX2 pKi (SPA binding): 4.29
- molecule: "Cc1ccc(-n2nccn2)c(C(=O)N2C3CC(C3)[C@@H](C)C2CNc2ncc(C(F)(F)F)cn2)n1 (mixture of isomers) [Example 193]"
  OX2 pKi (SPA binding): 4.64
- molecule: "C[C@@H]1C2CC(C2)N(C(=O)c2nn(C)cc2-c2ncccn2)C1CNc1cnc(C(F)(F)F)cn1 (mixture of isomers)"
  OX2 pKi (SPA binding): 4.49
- molecule: "Cc1ccc(-n2nccn2)c(C(=O)N2C3CC(C3)[C@@H](C)C2CNc2nc3ccccc3s2)n1 (some centres unmarked) [Example 178]"
  OX2 pKi (SPA binding): 5.63
- molecule: "Cc1ccc(-n2nccn2)c(C(=O)N2C3CC(C3)[C@@H](C)C2CNc2nc3ccccc3o2)n1 (stereo in doubt) [Example 225]"
  OX2 pKi (SPA binding): 5.22
